Give MIC for every item shown.
# Test system: E. coli BW25113
# Measurement Notes: MIC, microdilution in 96-well plates
# Type: cell-based
# Settings: Escherichia coli, BW25113, B: E. coli BW25113; read-out: MIC

Answered cases to consult:
O=S(=O)(N[C@@H]1CCN(Cc2cn(-c3ccccc3)nn2)C1)c1cccc(C(F)(F)F)c1 | > 8 mg/L
COc1ccc(-c2ccc(CN3CC[C@@H](NS(=O)(=O)c4cccc(C(F)(F)F)c4)C3)cc2)cc1 | > 8 mg/L
Cc1c(CN2CC[C@@H](NS(=O)(=O)c3cccc(C#N)c3)C2)cnn1-c1ccccc1 | > 8 mg/L
O=S(=O)(N[C@@H]1CCN(Cc2ccc(OC3CCOCC3)cc2)C1)c1cccc(OC(F)(F)F)c1 | > 8 mg/L
Cc1ccc(C(F)(F)F)cc1S(=O)(=O)N[C@@H]1CCN(Cc2ccc(OC3CC3)cc2)C1 | 8 mg/L
N#Cc1cccc(S(=O)(=O)N[C@@H]2CCN(Cc3ccc(-c4cccs4)cc3)C2)c1 | ~8 mg/L
O=S(=O)(N[C@@H]1CCN(Cc2ccc(-c3cccs3)cc2)C1)c1cccc(C(F)(F)F)c1 | > 8 mg/L

Next, consider the following compound.
stdin: State its MIC for this compound: N#Cc1cccc(S(=O)(=O)N[C@@H]2CCN(Cc3ccc(-n4ccnn4)cc3)C2)c1
stdout: > 8 mg/L
